test system: Salmonella; assay: Antibacterial activity against […] 48107 after 24 hrs by agar dilution method; format: functional
quantity-name: MIC (µg/mL)

Cc1ccc(NCc2c(F)cc3c(=O)c(C(=O)O)cn4c3c2OC[C@@H]4C)cc1C: 3.13
C[C@H]1COc2c(CNC3CC3)c(F)cc3c(=O)c(C(=O)O)cn1c23: 0.049

a: CC1COc2c(CN3CCCCC3)c(F)cc3c(=O)c(C(=O)O)cn1c23 (stereo not given)
b: O=C(O)c1cn(C2CC2)c2c(F)c(CNc3ccc(Cl)cc3)c(F)cc2c1=O
Field: lower recorded MIC (choose a or b ) # reply format: chosen label a
(a: 0.78 µg/mL, b: 1.56 µg/mL)

FYI, the data here is from ChEMBL document CHEMBL1137480.
